Provenance of the data: patent US10835624B2

Entries and their IC50 values follow.
Target: MAO B (Homo sapiens)
Construct: 20 μg of human brain homogenate (without AD pathology); from tissue; host or cells: human brain homogenate without AD pathology (healthy control)
Sequence (P27338 whole entry): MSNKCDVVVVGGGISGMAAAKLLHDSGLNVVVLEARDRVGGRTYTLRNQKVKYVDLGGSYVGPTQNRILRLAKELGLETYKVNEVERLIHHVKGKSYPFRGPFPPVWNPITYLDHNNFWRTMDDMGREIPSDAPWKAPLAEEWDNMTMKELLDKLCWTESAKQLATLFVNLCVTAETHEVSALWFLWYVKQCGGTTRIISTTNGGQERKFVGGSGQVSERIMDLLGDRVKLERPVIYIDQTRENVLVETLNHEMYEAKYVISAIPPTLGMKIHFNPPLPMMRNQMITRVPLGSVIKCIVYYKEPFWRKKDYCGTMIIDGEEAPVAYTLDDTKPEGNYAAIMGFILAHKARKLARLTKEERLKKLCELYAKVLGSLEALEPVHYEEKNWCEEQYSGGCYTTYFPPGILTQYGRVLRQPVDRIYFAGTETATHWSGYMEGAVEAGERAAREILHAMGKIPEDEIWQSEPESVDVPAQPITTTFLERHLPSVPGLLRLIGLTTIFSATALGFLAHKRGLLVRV
Assay: MAO B 18F-fluoro deprenyl competition assay in human HC brain homogenate
Assay type: binding
Give just the numeric value; nM need not be written.

[
  {
    "COMPOUND": "Fc1ccc(-c2ccc3c(c2)[nH]c2ccncc23)cn1 [Example F-1]",
    "REPORTED VALUE": 170
  }
]

Moving on to the next compound.
IN: Requested read-out: IC50. Entry: [18F]c1ccc(-c2ccc3c(c2)[nH]c2ccncc23)cn1 [^18F-1]
OUT: 170

* * *

Assay: PK studies in healthy mice (PET)
Assay type: in vivo, NMRI mice
Details: ratio of uptake peak/30 min; 18F tracer
QUANTITY: Mouse PK Washout

[
  {
    "COMPOUND SMILES": "Fc1cncc(-c2ccc3c(n2)[nH]c2ccncc23)c1",
    "QUANTITY": "Mouse PK Washout",
    "REPORTED VALUE": "(9.6)"
  },
  {
    "COMPOUND SMILES": "Fc1cccnc1-c1ccc2c(n1)[nH]c1ccncc12",
    "QUANTITY": "Mouse PK Washout",
    "REPORTED VALUE": "(3.6)"
  },
  {
    "COMPOUND SMILES": "Fc1cccc(-c2ccc3c(n2)[nH]c2ccncc23)n1",
    "QUANTITY": "Mouse PK Washout",
    "REPORTED VALUE": "(7.0)"
  }
]

* * *

Biological target: MAO A (Mus musculus, UniProt Q64133)
Construct: from tissue; host or cells: whole mouse brain homogenate
Sequence (Q64133 1-526): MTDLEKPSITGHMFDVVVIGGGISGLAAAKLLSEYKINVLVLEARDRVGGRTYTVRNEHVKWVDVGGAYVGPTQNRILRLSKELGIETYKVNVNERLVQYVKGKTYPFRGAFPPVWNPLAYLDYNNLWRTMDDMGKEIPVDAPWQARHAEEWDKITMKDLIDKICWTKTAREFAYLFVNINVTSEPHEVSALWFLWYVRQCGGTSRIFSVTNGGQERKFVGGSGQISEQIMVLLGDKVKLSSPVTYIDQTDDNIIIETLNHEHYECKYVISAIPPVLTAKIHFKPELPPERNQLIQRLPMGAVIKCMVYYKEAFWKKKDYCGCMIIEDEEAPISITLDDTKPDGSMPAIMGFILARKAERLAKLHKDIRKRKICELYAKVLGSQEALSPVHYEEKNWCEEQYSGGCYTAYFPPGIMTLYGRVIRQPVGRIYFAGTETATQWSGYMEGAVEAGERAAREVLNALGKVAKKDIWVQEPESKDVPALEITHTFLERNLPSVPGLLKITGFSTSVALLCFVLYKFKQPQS
Experiment: MAO A 18F-FEH competition assay in mouse brain homogenate
Format: binding
Conditions: IC50 in mouse brain homogenate; fluorine-19 derivatives; read-out: low MAO A binding
QUANTITY: IC50 (nM)
// note: answer is a bare numeric in nM

Answered cases to consult:
[
  {
    "COMPOUND": "Fc1cccc(-c2ccc3c(n2)[nH]c2ccncc23)n1 [Example F-7]",
    "REPORTED VALUE": 268
  },
  {
    "COMPOUND": "Fc1ccc(-c2ccc3c(n2)[nH]c2ccncc23)nc1 [Example F-8]",
    "REPORTED VALUE": 75
  }
]

Attention now turns to another entry.
IN: # query: IC50 of entry Fc1cnccc1-c1ccc2c(n1)[nH]c1ccncc12 [Example F-3b]
OUT: 765
